B1: tRNA (parent)
chain: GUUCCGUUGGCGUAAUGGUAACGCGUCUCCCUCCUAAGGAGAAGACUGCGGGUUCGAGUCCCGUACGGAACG

# Variants of: B1
# Assay text: yeast fitness relative to wild type (ratio to wild type); higher = fitter; tRNA-Arg(CCU), competitive growth, 37 C, YPD
This sample holds only a part of the variants without activity.
The reader will find reported yeast fitness values listed item by item below.
Format: numeric value only, no unit, no commentary.

Below, each entry is followed by its recorded yeast fitness result.
C11G G56C: 0.627
C5G G23C: 0.695

Reported yeast fitness for C11A G44C C46A U53A G63C was 0.866

Reported yeast fitness for C4A C24G U28A U35C C49U was 0.542

Reported yeast fitness for U47G A69C was 0.69

Reported yeast fitness for C55A A70G was 0.557

Reported yeast fitness for U3C C4U U64A was 0.617
